Measured inhibition of growth at 50 µM of individual entries
- Test system: HCT-15
- procedure-text: Cytotoxicity against human HCT15 cells assessed as cell growth inhibition at 50 uM after 48 hrs by SRB assay relative to control
- Type: functional
- run-conditions: HCT-15, 48 h, read-out: GI
measured-attribute: inhibition of growth at 50 µM

- compound: "COc1ccc2c(c1OC)C(C[N+](=O)[O-])N(C)c1c-2ccc2cc3c(cc12)OCO3 (centres undefined)"
  reading: "100%"
- compound: "CCOP(=O)(OCC)C1c2c(ccc(OC)c2OC)-c2ccc3cc4c(cc3c2N1C)OCO4 (centres undefined)"
  reading: "40.8%"
- compound: "COC(=O)C(C(=O)OC)C1c2ccccc2-c2ccc3ccccc3c2N1C (centres undefined)"
  reading: "100%"
- compound: "CCOC(=O)C(C(=O)OCC)C1c2c(ccc(OC)c2OC)-c2ccc3cc4c(cc3c2N1C)OCO4 (centres undefined)"
  reading: "100%"
- compound: "CN1Cc2c(ccc3c2OCO3)-c2ccc3cc4c(cc3c21)OCO4 [DIHYDROSANGUINARINE]"
  reading: "55.3%"
- compound: "CCOC(=O)C(C(=O)OCC)C1c2ccccc2-c2ccc3ccccc3c2N1C (centres undefined)"
  reading: "100%"
- compound: "CN1c2c(ccc3ccccc23)-c2ccccc2C1C[N+](=O)[O-] (centres undefined)"
  reading: "100%"
- compound: "CN1c2c(ccc3ccccc23)-c2ccccc2C1C#Cc1ccccc1 (centres undefined)"
  reading: "100%"
- compound: "COc1ccc2c(c1OC)CN(C)c1c-2ccc2cc3c(cc12)OCO3 [DIHYDROCHELERYTHRINE]"
  reading: "56.5%"
- compound: "CN1c2c(ccc3ccccc23)-c2ccccc2C1C#CCOc1ccc(C=O)cc1 (centres undefined)"
  reading: "3%"
- compound: "CN1c2c(ccc3cc4c(cc23)OCO4)-c2ccc3c(c2C1C[N+](=O)[O-])OCO3 (centres undefined)"
  reading: "100%"
- compound: "COc1ccc2c(c1OC)C(C#CCOc1ccc(C=O)cc1)N(C)c1c-2ccc2cc3c(cc12)OCO3 (centres undefined)"
  reading: "68.8%"
- compound: "COc1ccc2c(c1OC)C(c1c(C)[nH]c3ccccc13)N(C)c1c-2ccc2cc3c(cc12)OCO3 (centres undefined)"
  reading: "100%"
- compound: "CCC(C1c2c(ccc(OC)c2OC)-c2ccc3cc4c(cc3c2N1C)OCO4)[N+](=O)[O-] (centres undefined)"
  reading: "82.5%"
- compound: "CN1c2c(ccc3cc4c(cc23)OCO4)-c2ccc3c(c2C1C#Cc1ccccc1)OCO3 (centres undefined)"
  reading: "26.1%"
- compound: "COc1ccc2c(c1OC)C(c1c[nH]c3ccccc13)N(C)c1c-2ccc2cc3c(cc12)OCO3 (centres undefined)"
  reading: "70.6%"
- compound: "CCOP(=O)(OCC)C1c2c(ccc3c2OCO3)-c2ccc3cc4c(cc3c2N1C)OCO4 (centres undefined)"
  reading: "100%"
- compound: "CCCCOP(=O)(OCCCC)C1c2ccccc2-c2ccc3ccccc3c2N1C (centres undefined)"
  reading: "68.7%"
- compound: "Cc1[nH]c2ccccc2c1C1c2c(ccc3c2OCO3)-c2ccc3cc4c(cc3c2N1C)OCO4 (centres undefined)"
  reading: "100%"
